Tested on: Hs-578T
Assay Notes: NCI tumour cell line growth inhibition, 48 h
Activity calls are given as the source filed them. Cut-off read from the data, not from the text of the source: active = GI50 up to about 1.1 µM and inactive = higher.
Value Kind: GI50

>  <Compound>
O=c1ccn(CC2(CO)CC(Cc3ccccc3)C2)c(=O)[nH]1 (stereo unspecified)

>  <GI50>
> 100 µM (inactive)

$$$$
>  <Compound>
O=C(CCc1ccccc1CO)NCCc1ccccc1

>  <GI50>
20 µM (inactive)

$$$$
>  <Compound>
COC(=O)c1ccc(NCC2=C(Br)C(=O)C=CC2=O)cc1Cl

>  <GI50>
21.9 µM (inactive)

$$$$

**Q:** Quickly give me recorded GI50 for Nc1ccc(-c2nc3ccccc3s2)cc1F
**A:** 29.1 µM (inactive)

**Q:** Quickly give me recorded GI50 for Cc1ccc(S(=O)(=O)c2ccc([N+](=O)[O-])o2)cc1
**A:** 2.53 µM (inactive)

**Q:** Quickly give me recorded GI50 for C=C(C(=O)OC)c1cc2ccccc2n1S(=O)(=O)c1ccccc1
**A:** 4.11 µM (inactive)

###

System: SK-OV-3
Assay Notes: NCI tumour cell line growth inhibition, 48 h
Active and inactive are the calls of the source. Cut-off read from the data, not from the text of the source: active = GI50 up to about 1.1 µM and inactive = higher. Where a SMILES comes first, the peptide text is derived from it. The star is where a group is joined. Boc = CC(C)(C)OC(=O)*
GI50 overview

Consider the following illustrative entries.
>  <Compound>
N#C[C@@]12CCCC(=O)[C@@H]1[C@H]1CCC[C@H]12

>  <GI50>
14.7 µM (inactive)

$$$$
>  <Compound>
CN(CCNCc1cn(C)c2c1ccc1ccccc12)CCNCc1cn(C)c2c1ccc1ccccc12

>  <GI50>
1.76 µM (inactive)

$$$$
>  <Compound>
CCOC(=O)c1nc2ccccc2nc1Nc1ccc(OC)c(OC)c1

>  <GI50>
> 100 µM (inactive)

$$$$
>  <Compound>
Nc1ccc(C(=O)NN2C(=O)C(Cl)C2c2ccccc2Cl)cc1 (configuration not stated)

>  <GI50>
16.1 µM (inactive)

$$$$
>  <Compound>
NC(=S)N/N=C1\CCc2ccccc2C1

>  <GI50>
> 100 µM (inactive)

$$$$

**Q:** Quickly give me recorded GI50 for O=C(NCCCCl)c1c(O)c2ccccc2[nH]c1=O
**A:** > 80.5 µM (inactive)

**Q:** Quickly give me recorded GI50 for O=C(O)c1cc2ccccc2c(/N=N/c2ccccc2)c1O
**A:** 41.9 µM (inactive)

**Q:** Quickly give me recorded GI50 for O=C(c1ccccc1)N1CCc2c([nH]c3ccccc23)C1
**A:** 85.3 µM (inactive)

**Q:** Quickly give me recorded GI50 for Nc1nn(CC(O)CO)c(=O)s1 (configuration not stated)
**A:** > 100 µM (inactive)

**Q:** Quickly give me recorded GI50 for O=P(O)(O)OP(=O)(O)O
**A:** > 100 µM (inactive)

**Q:** Quickly give me recorded GI50 for COC(=O)CNC(=O)C(Cc1ccccc1)NC(=O)C(CCSC)NC(=O)C(Cc1ccc(O)cc1)NC(=O)OC(C)(C)C (configuration not stated) (Boc-YMFG-OMe; configuration not given here)
**A:** > 100 µM (inactive)

**Q:** Quickly give me recorded GI50 for CCCCOC(=O)C(NC(C(=O)OCCCC)c1cc(C(C)(C)C)c(O)c(C(C)(C)C)c1)c1cc(C(C)(C)C)c(O)c(C(C)(C)C)c1 (configuration not stated)
**A:** > 100 µM (inactive)

**Q:** Quickly give me recorded GI50 for CSc1nc2ccccc2c(=O)n1/N=C1\C(=O)N(CN2CCOCC2)c2ccc(Cl)cc21
**A:** 30.6 µM (inactive)

**Q:** Quickly give me recorded GI50 for O=C(O)C1=C(C(=O)O)N(c2ccncc2)C(c2ccco2)=CC1c1ccccc1[N+](=O)[O-] (configuration not stated)
**A:** 18 µM (inactive)

**Q:** Quickly give me recorded GI50 for COc1ccc(C2=C(Cl)C(=O)O/C2=C\c2ccc(OC)c(Br)c2)cc1Cl
**A:** 37.1 µM (inactive)

Reference source: ChEMBL document CHEMBL1201862
